Tested on: MV4.11
assay text: IC50 (cell viability) (log10 M)
condition description: 4 days
readout label: IC50 (log10 M)
API doc: respond with a numeric literal and nothing else, no unit.

Guide cases for IC50 (log10 M), answers given:
molecular string: CN1CCN(CCOc2cc(OC3CCOCC3)c3c(Nc4c(Cl)ccc5c4OCO5)ncnc3c2)CC1
numeric readout: -5.33
//
molecular string: COc1cc(N2CCC(N3CCN(C)CC3)CC2)ccc1Nc1ncc(Cl)c(Nc2ccccc2S(=O)(=O)C(C)C)n1
numeric readout: -5.83
//
molecular string: Cl[TeH]1(Cl)(Cl)OCCO1.N
numeric readout: -5.19

Give a short answer stating reported IC50 (log10 M) for `COc1cc(F)c(F)c(Nc2ccc(I)cc2F)c1NS(=O)(=O)C1(C[C@H](O)CO)CC1` . -6.17

Report IC50 (log10 M) for `Cc1cc(C(=O)NOCCO)c(Nc2ccc(I)cc2F)n(C)c1=O` -8.16

Please give measured IC50 (log10 M) of the following entry: `CC(C)CC(=O)Nc1n[nH]c2c1CN(C(=O)C1CCN(C)CC1)C2(C)C` -7.67

Report measured IC50 (log10 M); entry is `Cc1cn(-c2cc(NC(=O)c3ccc(C)c(Nc4nccc(-c5cccnc5)n4)c3)cc(C(F)(F)F)c2)cn1` -5.28

Give IC50 (log10 M) for the following compound: `COc1ccc(-c2ccc3c(N4CCOC[C@@H]4C)nc(N4CCOC[C@@H]4C)nc3n2)cc1CO` -7.75

Please indicate IC50 (log10 M) recorded for `CC(C)(C)c1cnc(CSc2cnc(NC(=O)C3CCNCC3)s2)o1` -6.84

Quote IC50 (log10 M) reported for `Cn1cc(C2=C(c3cn(C4CCN(Cc5ccccn5)CC4)c4ccccc34)C(=O)NC2=O)c2ccccc21` please. -5.11

----------
Test system: MOLM/16
assay text: IC50 (cell viability) (log10 M)
condition description: 4 days
Structures can show the parent of a compound that is named as a salt.
Binary label based on IC50 (log10 M) with cut-off -6: below gives Fulfilled, not below gives Not fulfilled.

The examples below pair each entry with its known result.
molecule: Nc1ncn([C@H]2C[C@H](O)[C@@H](CO)O2)c(=O)n1
classification: Fulfilled
//
molecule: OC[C@H]1O[C@@H](n2cnc3c2N=CNC[C@H]3O)C[C@@H]1O
classification: Not fulfilled
//
molecule: COc1ccc(-c2cc3c(C)nc(N)nc3n([C@H]3CC[C@H](OCCO)CC3)c2=O)cn1
classification: Fulfilled
//
molecule: N[C@@H](Cc1ccc(N(CCCl)CCCl)cc1)C(=O)O
classification: Not fulfilled
//
molecule: c1cc(-c2sc(-c3ccncc3)c(-c3ccncc3)c2-c2ccncc2)ccn1
classification: Not fulfilled
//
molecule: COc1cccc2c1C(=O)c1c(O)c3c(c(O)c1C2=O)C[C@@](O)(C(C)=O)C[C@@H]3O[C@H]1C[C@H](N)[C@H](O)[C@H](C)O1 [Daunorubicin HCl]
classification: Fulfilled
//
molecule: Cc1ccc(Nc2nccc(N(C)c3ccc4c(C)n(C)nc4c3)n2)cc1S(N)(=O)=O
classification: Not fulfilled
//
molecule: O=C1NC(=O)c2c1c1c3ccccc3n3c1c1c2c2ccccc2n1[C@H]1CC[C@@H]3O1
classification: Fulfilled
//
molecule: CSCC[C@H](NC(=O)c1ccc(NC[C@@H](N)CS)cc1-c1ccccc1)C(=O)O
classification: Not fulfilled
//
molecule: CC[C@]1(O)C[C@@H]2CN(CCc3c([nH]c4ccccc34)[C@@](C(=O)OC)(c3cc4c(cc3OC)N(C)[C@H]3[C@@](O)(C(=O)OC)[C@H](OC(C)=O)[C@]5(CC)C=CCN6CC[C@]43[C@@H]65)C2)C1 [Vinblastine sulfate]
classification: Fulfilled

Does the reported IC50 (log10 M) of the following molecule sit strictly below -6? `COc1cc2c(Oc3ccc4[nH]c(C)cc4c3F)ncnc2cc1OCCCN1CCCC1` Not fulfilled

In the record for `O=C(NC[C@H](O)CO)c1ccncc1Nc1ccc(I)cc1F` , is IC50 (log10 M) less than -6? Fulfilled

is_below(IC50 (log10 M), -6) for Cc1cc(C(C)Nc2ccccc2)c2nc(N3CCOCC3)cc(=O)n2c1 (configuration not stated) ? Not fulfilled

Is it true that IC50 (log10 M) reported for `COc1cc2ncnc(Nc3ccc(F)c(Cl)c3)c2cc1OCCCN1CCOCC1` is less than -6? Not fulfilled
